Reference source: ChEMBL document CHEMBL1201862

UniProt:P08684 AC50 data
Sequence (P08684 whole entry): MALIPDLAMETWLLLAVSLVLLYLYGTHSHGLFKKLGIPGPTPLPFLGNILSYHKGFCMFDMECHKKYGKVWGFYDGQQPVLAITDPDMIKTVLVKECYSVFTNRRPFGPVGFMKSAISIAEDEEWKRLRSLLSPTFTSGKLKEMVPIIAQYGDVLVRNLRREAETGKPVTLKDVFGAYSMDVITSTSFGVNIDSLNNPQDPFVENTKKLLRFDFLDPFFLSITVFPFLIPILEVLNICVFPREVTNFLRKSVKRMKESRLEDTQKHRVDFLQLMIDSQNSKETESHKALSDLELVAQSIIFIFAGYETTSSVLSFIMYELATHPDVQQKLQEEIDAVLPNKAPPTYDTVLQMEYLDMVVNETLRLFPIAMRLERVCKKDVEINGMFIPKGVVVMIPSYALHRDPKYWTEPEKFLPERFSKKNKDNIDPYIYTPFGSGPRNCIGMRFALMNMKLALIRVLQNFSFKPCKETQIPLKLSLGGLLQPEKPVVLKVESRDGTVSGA

Example entries and their recorded answers appear below.
O=C(c1cnccn1)N1CCC2(CCCN(c3ccccn3)C2)CC1 | 7.94 µM (inconclusive)
CNc1nc(-c2c(C)noc2C)nc2ccccc12 | 12.6 µM (inconclusive)

For the next question, use this molecule.
Q) Record lookup: for UniProt:P08684, what AC50 belongs to CS(=O)(=O)N1CCC[C@@]2(CCN(C(=O)Nc3cccc(C#N)c3)C2)C1 ?
A) 20 µM (inconclusive)

###

Would you kindly list AC50 for each of these compounds?
Target: Replicative DNA helicase DnaB (Mycobacterium tuberculosis, UniProt P9WMR3)
Sequence (P9WMR3 whole entry): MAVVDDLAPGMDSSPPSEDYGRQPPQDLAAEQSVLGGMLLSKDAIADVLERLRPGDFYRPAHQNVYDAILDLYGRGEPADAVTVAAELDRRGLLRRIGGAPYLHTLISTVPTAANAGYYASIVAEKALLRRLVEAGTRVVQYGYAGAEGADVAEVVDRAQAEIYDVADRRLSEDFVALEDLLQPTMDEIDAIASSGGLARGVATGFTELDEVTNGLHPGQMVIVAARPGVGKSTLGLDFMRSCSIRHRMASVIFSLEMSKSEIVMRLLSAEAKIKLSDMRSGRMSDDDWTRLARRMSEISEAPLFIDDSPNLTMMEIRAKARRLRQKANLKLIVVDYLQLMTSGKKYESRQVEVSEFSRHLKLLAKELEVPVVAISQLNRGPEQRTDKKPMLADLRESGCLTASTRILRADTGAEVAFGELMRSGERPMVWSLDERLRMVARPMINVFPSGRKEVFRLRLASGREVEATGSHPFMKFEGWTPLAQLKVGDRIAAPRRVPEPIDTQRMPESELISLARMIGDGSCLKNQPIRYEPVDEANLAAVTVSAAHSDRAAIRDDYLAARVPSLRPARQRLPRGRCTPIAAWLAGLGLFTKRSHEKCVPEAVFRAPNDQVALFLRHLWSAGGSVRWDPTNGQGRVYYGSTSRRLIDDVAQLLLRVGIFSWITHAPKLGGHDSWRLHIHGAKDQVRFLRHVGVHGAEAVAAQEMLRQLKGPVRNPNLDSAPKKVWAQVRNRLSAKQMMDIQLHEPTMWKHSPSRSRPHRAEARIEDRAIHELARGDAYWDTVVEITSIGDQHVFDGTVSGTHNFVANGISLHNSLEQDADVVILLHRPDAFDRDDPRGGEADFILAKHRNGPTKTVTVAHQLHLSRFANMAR
Assay: DnaB intein splicing inhibitors, dose response, biochemical, cell-free fluorescence (AID 449749)
Assay type: functional
Active and inactive are the calls of the source.

CCCCCCCCCCOC(=O)C[n+]1c(COc2cccc(C)c2)n(C)c2ccccc21 | 3.19 µM (active)
CC(C)CC(NC(=O)CCl)c1ccccc1 (stereo not given) | 320 µM (active)
COc1cc(-n2nc(C)c3c2OC(N)=C(C#N)C3c2ccccc2)c(Cl)c(Br)c1O (stereo not given) | 15.6 µM (active)
CCOC(=O)C(C)Sc1ncnc2c1nnn2-c1ccc(F)cc1 (stereo not given) | 10.4 µM (active)

Q) Consider the compound O=C(c1[nH]ncc1-c1ccc(Cl)cc1)C1CO1 (stereo not given) and give its measured AC50.
A) 31.7 µM (active)

###

Target: Heat shock factor protein 1 (Mus musculus)
Sequence (P38532 whole entry): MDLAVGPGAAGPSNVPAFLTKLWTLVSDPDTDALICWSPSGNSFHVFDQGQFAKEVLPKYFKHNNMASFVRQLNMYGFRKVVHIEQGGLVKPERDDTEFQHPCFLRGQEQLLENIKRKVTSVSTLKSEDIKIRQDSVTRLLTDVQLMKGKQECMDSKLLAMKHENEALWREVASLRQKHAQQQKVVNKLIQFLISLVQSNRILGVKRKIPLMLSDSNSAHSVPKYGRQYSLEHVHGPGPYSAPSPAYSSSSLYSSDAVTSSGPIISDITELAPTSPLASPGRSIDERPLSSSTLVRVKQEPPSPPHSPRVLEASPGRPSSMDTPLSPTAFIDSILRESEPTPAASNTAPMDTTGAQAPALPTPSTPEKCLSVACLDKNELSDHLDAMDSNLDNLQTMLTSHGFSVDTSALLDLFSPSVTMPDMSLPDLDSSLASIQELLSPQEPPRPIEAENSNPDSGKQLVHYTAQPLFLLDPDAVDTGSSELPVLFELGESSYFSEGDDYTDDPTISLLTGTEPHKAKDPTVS
Assay: enhancement of HSF1-driven luciferase signal – cell-based, NIH3T3, luminescence, dose retest, confirmation (AID 435004);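 further: stress induced by proteasome inhibitor MG132 added 30 min after compound; luciferase reporter driven by HSF1 response element in NIH3T3 cells; actives raise luminescence as potentiators of the MG132 stress response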
Format: functional
Calls of active or inactive are those of the source.
Outcome (select one): yes (1) for active, no (0) for inactive

CC(=O)OC(C)C(=O)NS(=O)(=O)c1ccc(C)cc1 (centres undefined) | no (0)
O=C(c1ccc2nccnc2c1)N1CCCC(Nc2ccc(F)c(F)c2)C1 (centres undefined) | no (0)
COCCCN1C(=O)c2[nH]nc(-c3ccccc3O)c2C1c1cccc(Cl)c1 (centres undefined) | yes (1)

Q) Status in this test for CCN(CC)C(S)=Nc1ccc(Cl)c(Cl)c1 ?
A) no (0)

Q) Status in this test for Nc1cc(-c2ccco2)no1 ?
A) yes (1)

Q) Status in this test for COc1cc(/C=C(\C#N)C(=O)NC2CCCCC2C)ccc1OS(=O)(=O)c1ccc(C)cc1 (centres undefined) ?
A) yes (1)

Q) Status in this test for Cc1cc(Cl)n2c(nc3cc(F)c(F)cc32)c1C#N ?
A) yes (1)

Q) Status in this test for Cc1ccc(NC(=O)Cn2c(CCC(=O)O)ccc2-c2cccs2)cc1 ?
A) no (0)
